Test system: Mycobacterium avium
Settings: in vivo, 72 h
Description: Antimycobacterial activity against Mycobacterium avium 104 mc'2 3 assessed as reduction in bacterial viability incubated for 3 days by MTT assay
Recorded metric: MIC (µg/mL)

{"Compound": "CC[C@H]1OC(=O)[C@H](C)[C@@H](O[C@H]2C[C@@](C)(OC)[C@@H](O)[C@H](C)O2)[C@H](C)[C@@H](O[C@@H]2O[C@H](C)C[C@H](N(C)C)[C@H]2O)[C@](C)(O)C[C@@H](C)C(=O)[C@H](C)[C@@H](O)[C@]1(C)O", "Recorded metric": "MIC", "Bound type": ">", "Number": 512}
{"Compound": "CCCOc1ccc(-c2cn(CCN3CCCCC3)c3ccccc3c2=O)cc1", "Recorded metric": "MIC", "Bound type": "=", "Number": 256}
{"Compound": "CCCOc1ccc(-c2cn(CCCN(C)C)c3ccccc3c2=O)cc1", "Recorded metric": "MIC", "Bound type": ">", "Number": 256}
{"Compound": "CSc1ccc2c(c1)N(CCC1CCCCN1C)c1ccccc1S2 (stereo not given)", "Recorded metric": "MIC", "Bound type": "=", "Number": 30}
{"Compound": "CN(C)CCCN1c2ccccc2Sc2ccc(Cl)cc21", "Recorded metric": "MIC", "Bound type": "=", "Number": 30}

* * *

Catalogue of molecules with associated MIC
Test system: Mycobacterium avium
Settings: 104 mc'2 4

{"Molecule": "CN(C)CCCN1c2ccccc2Sc2ccc(Cl)cc21", "Target under test": "Mycobacterium avium", "MIC": "> 512 µg/mL"}
{"Molecule": "CCCOc1ccc(-c2cn(CCN(CC)CC)c3ccccc3c2=O)cc1", "Target under test": "Mycobacterium avium", "MIC": "512 µg/mL"}
{"Molecule": "CSc1ccc2c(c1)N(CCC1CCCCN1C)c1ccccc1S2 (stereo not given)", "Target under test": "Mycobacterium avium", "MIC": "> 512 µg/mL"}
{"Molecule": "CCCOc1ccc(-c2cn(CCN3CCCCCC3)c3ccccc3c2=O)cc1", "Target under test": "Mycobacterium avium", "MIC": "32 µg/mL"}
{"Molecule": "CCCOc1ccc(-c2cn(CCN3CCCCC3)c3ccccc3c2=O)cc1", "Target under test": "Mycobacterium avium", "MIC": "128 µg/mL"}

* * *

Test system: Mycobacterium avium
Test: Antimycobacterial activity against Mycobacterium avium isolate MAV2 assessed as reduction in bacterial viability incubated for 3 days by MTT assay
Format: organism-based
Details: 72 h
Catalogue of compounds with associated MIC

{"Compound": "CC1COc2c(N3CCN(C)CC3)c(F)cc3c(=O)c(C(=O)O)cn1c23 (stereo unspecified) [OFLOXACIN]", "Unit text": "µg/mL", "Bound type": "=", "MIC": 4}
{"Compound": "CC[C@H]1OC(=O)[C@H](C)[C@@H](O[C@H]2C[C@@](C)(OC)[C@@H](O)[C@H](C)O2)[C@H](C)[C@@H](O[C@@H]2O[C@H](C)C[C@H](N(C)C)[C@H]2O)[C@](C)(O)C[C@@H](C)CN(C)[C@H](C)[C@@H](O)[C@]1(C)O [AZITHROMYCIN]", "Unit text": "µg/mL", "Bound type": ">", "MIC": 512}
{"Compound": "CC[C@H]1OC(=O)[C@H](C)[C@@H](O[C@H]2C[C@@](C)(OC)[C@@H](O)[C@H](C)O2)[C@H](C)[C@@H](O[C@@H]2O[C@H](C)C[C@H](N(C)C)[C@H]2O)[C@](C)(OC)C[C@@H](C)C(=O)[C@H](C)[C@@H](O)[C@]1(C)O [CLARITHROMYCIN]", "Unit text": "µg/mL", "Bound type": ">", "MIC": 1024}
{"Compound": "O=C(O)c1cn(C2CC2)c2cc(N3CCNCC3)c(F)cc2c1=O [CIPROFLOXACIN]", "Unit text": "µg/mL", "Bound type": "=", "MIC": 8}
{"Compound": "COc1ccc(CCN(C)CCCC(C#N)(c2ccc(OC)c(OC)c2)C(C)C)cc1OC (stereo unspecified)", "Unit text": "µg/mL", "Bound type": "=", "MIC": 400}
{"Compound": "CCCOc1ccc(-c2cn(CCN3CCCCC3)c3ccccc3c2=O)cc1", "Unit text": "µg/mL", "Bound type": "=", "MIC": 256}

* * *

Test system: Mycobacterium avium subsp. avium ATCC 25291

{"Compound": "CSc1ccc2c(c1)N(CCC1CCCCN1C)c1ccccc1S2 (stereo not given)", "Bound type": "=", "MIC, µg/mL": 1}
{"Compound": "CCCOc1ccc(-c2cn(CCN(CC)CC)c3ccccc3c2=O)cc1", "Bound type": "=", "MIC, µg/mL": 8}
{"Compound": "CCCOc1ccc(-c2cn(CCN3CCCCC3)c3ccccc3c2=O)cc1", "Bound type": "<", "MIC, µg/mL": 0.0625}
{"Compound": "CCCOc1ccc(-c2cn(CCN3CCCCCC3)c3ccccc3c2=O)cc1", "Bound type": "<", "MIC, µg/mL": 0.0625}
{"Compound": "CN(C)CCCN1c2ccccc2Sc2ccc(Cl)cc21", "Bound type": "<", "MIC, µg/mL": 0.125}

* * *

Tested on: Mycobacterium avium
Conditions: isolate MAV1
Recorded metric: MIC

{"Molecule": "CN(C)CCCN1c2ccccc2Sc2ccc(Cl)cc21 [CHLORPROMAZINE]", "Result": "< 4 µg/mL"}
{"Molecule": "CCCOc1ccc(-c2cn(CCN3CCCCC3)c3ccccc3c2=O)cc1", "Result": "< 4 µg/mL"}
{"Molecule": "CSc1ccc2c(c1)N(CCC1CCCCN1C)c1ccccc1S2 (stereo not given) [THIORIDAZINE]", "Result": "< 4 µg/mL"}
{"Molecule": "CCCOc1ccc(-c2cn(CCN3CCCCCC3)c3ccccc3c2=O)cc1", "Result": "< 4 µg/mL"}
{"Molecule": "CCCOc1ccc(-c2cn(CCN(CC)CC)c3ccccc3c2=O)cc1", "Result": "16 µg/mL"}

* * *

System: Mycobacterium avium
Conditions: 104 mc'2 4
Recorded metric: MIC (µg/mL)

{"Compound": "CCCOc1ccc(-c2cn(CCN(CC)CC)c3ccccc3c2=O)cc1", "Unit text": "µg/mL", "Number": 4}
{"Compound": "CCCOc1ccc(-c2cn(CCN3CCCCC3)c3ccccc3c2=O)cc1", "Unit text": "µg/mL", "Number": 2}
{"Compound": "CSc1ccc2c(c1)N(CCC1CCCCN1C)c1ccccc1S2 (stereo not given)", "Unit text": "µg/mL", "Number": 4}
{"Compound": "CN(C)CCCN1c2ccccc2Sc2ccc(Cl)cc21", "Unit text": "µg/mL", "Number": 4}
{"Compound": "CCCOc1ccc(-c2cn(CCN3CCCCCC3)c3ccccc3c2=O)cc1", "Unit text": "µg/mL", "Number": 1}

* * *

Tested on: Mycobacterium avium
Details: isolate MAV4
Catalogue of molecules with associated MIC

{"Molecule": "CCCOc1ccc(-c2cn(CCN3CCCCC3)c3ccccc3c2=O)cc1", "Unit text": "µg/mL", "Bound type": "<", "MIC": 0.125}
{"Molecule": "CSc1ccc2c(c1)N(CCC1CCCCN1C)c1ccccc1S2 (stereo not given)", "Unit text": "µg/mL", "Bound type": "=", "MIC": 4}
{"Molecule": "CCCOc1ccc(-c2cn(CCN(CC)CC)c3ccccc3c2=O)cc1", "Unit text": "µg/mL", "Bound type": "=", "MIC": 4}
{"Molecule": "CCCOc1ccc(-c2cn(CCN3CCCCCC3)c3ccccc3c2=O)cc1", "Unit text": "µg/mL", "Bound type": "<", "MIC": 0.125}
{"Molecule": "CN(C)CCCN1c2ccccc2Sc2ccc(Cl)cc21", "Unit text": "µg/mL", "Bound type": "=", "MIC": 2}

* * *

Test system: Mycobacterium avium
Settings: 104 mc'2 4
Recorded metric: MIC (µg/mL)

{"Compound": "CCCOc1ccc(-c2cn(CCN3CCCCCC3)c3ccccc3c2=O)cc1", "Target under test": "Mycobacterium avium", "Recorded metric": "MIC", "Number": 2}
{"Compound": "CCCOc1ccc(-c2cn(CCN(CC)CC)c3ccccc3c2=O)cc1", "Target under test": "Mycobacterium avium", "Recorded metric": "MIC", "Number": 8}
{"Compound": "CCCOc1ccc(-c2cn(CCN3CCCCC3)c3ccccc3c2=O)cc1", "Target under test": "Mycobacterium avium", "Recorded metric": "MIC", "Number": 4}
{"Compound": "CN(C)CCCN1c2ccccc2Sc2ccc(Cl)cc21 [CHLORPROMAZINE]", "Target under test": "Mycobacterium avium", "Recorded metric": "MIC", "Number": 8}
{"Compound": "CSc1ccc2c(c1)N(CCC1CCCCN1C)c1ccccc1S2 (stereo not given) [THIORIDAZINE]", "Target under test": "Mycobacterium avium", "Recorded metric": "MIC", "Number": 8}

* * *

Test system: Mycobacterium avium
Settings: 104
Catalogue of compounds with associated MIC

{"Compound": "CCCOc1ccc(-c2cn(CCN3CCCCC3)c3ccccc3c2=O)cc1", "Target under test": "Mycobacterium avium", "Bound type": "<", "MIC, µg/mL": 0.195}
{"Compound": "CCCOc1ccc(-c2cn(CCN(CC)CC)c3ccccc3c2=O)cc1", "Target under test": "Mycobacterium avium", "Bound type": "=", "MIC, µg/mL": 3.12}
{"Compound": "CCCOc1ccc(-c2cn(CCN3CCCCCC3)c3ccccc3c2=O)cc1", "Target under test": "Mycobacterium avium", "Bound type": "<", "MIC, µg/mL": 0.195}
{"Compound": "CN(C)CCCN1c2ccccc2Sc2ccc(Cl)cc21", "Target under test": "Mycobacterium avium", "Bound type": "=", "MIC, µg/mL": 3.12}
{"Compound": "CSc1ccc2c(c1)N(CCC1CCCCN1C)c1ccccc1S2 (stereo not given)", "Target under test": "Mycobacterium avium", "Bound type": "=", "MIC, µg/mL": 6.25}
